# Test system: THP-1
# assay_comment: Induction of cholesterol efflux in THP1 cells at 10 uM relative to control
# Format: functional, Homo sapiens
Decide using Ratio alone. Strictly below 2: condition met. Equal to or above 2: condition not met.

Consider the following illustrative entries.
CC(C)(C)OC(=O)n1c(-c2ccc3c(c2)CC(NS(=O)(=O)c2ccccc2)C3)cc2ccccc21 (stereo unspecified) ... condition met
CC(C)(C)OC(=O)n1c(-c2ccc(CCC(=O)O)cc2)cc2ccccc21 ... condition met

In plain terms, does `CC(C)(C)OC(=O)n1c(-c2ccc(CCC(N)=O)cc2)cc2ccccc21` come in under 2 for Ratio? condition met

Given `O=C(O)Cc1cccc(OCCCN(Cc2cccc(C(F)(F)F)c2Cl)CC(c2ccccc2)c2ccccc2)c1` , is recorded Ratio strictly lower than 2? condition met

Dear colleague, could you confirm whether Ratio of `CC(C)(C)OC(=O)n1c(-c2ccc(CCC#N)cc2)cc2ccccc21` falls below 2? Thanks. condition not met

Is it true that Ratio reported for `N#CCCc1ccc(-c2cc3ccccc3n2C(=O)c2ccccc2)cc1` is less than 2? condition met

----------
# study_system: Oxysterols receptor LXR-alpha (Homo sapiens, UniProt Q13133)
# Sequence (Q13133 whole entry): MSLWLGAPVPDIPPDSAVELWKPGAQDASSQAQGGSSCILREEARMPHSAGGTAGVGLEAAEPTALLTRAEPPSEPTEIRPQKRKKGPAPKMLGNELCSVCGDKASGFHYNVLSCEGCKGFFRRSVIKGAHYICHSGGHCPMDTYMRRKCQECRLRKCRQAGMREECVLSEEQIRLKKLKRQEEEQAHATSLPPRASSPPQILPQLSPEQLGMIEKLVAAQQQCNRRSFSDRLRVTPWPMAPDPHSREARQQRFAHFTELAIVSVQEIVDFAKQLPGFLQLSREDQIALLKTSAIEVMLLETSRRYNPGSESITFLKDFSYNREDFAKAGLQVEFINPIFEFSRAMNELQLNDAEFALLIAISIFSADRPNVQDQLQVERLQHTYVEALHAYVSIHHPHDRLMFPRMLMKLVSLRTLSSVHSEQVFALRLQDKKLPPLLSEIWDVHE
# assay_comment: Agonist activity at human LXRalpha receptor after 1 hr by HTRF cofactor recruitment assay
# Format: functional
So I've got a bunch of molecules here, and I need their pEC50 values.
One number for each entry, as −log10 of the molar value.

N#CCCc1ccc(-c2cc3ccccc3n2C(=O)c2ccccc2)cc1 ... 6.66
CC(C)(C)OC(=O)n1c(-c2ccc(CCC#N)cc2)cc2ccccc21 ... 5.92
CC(C)(C)OC(=O)n1c(-c2ccc(CCC(=O)O)cc2)cc2ccccc21 ... 5.94

Let us move to another entry and its pEC50.
Please look at `CC(C)(C)OC(=O)n1c(-c2ccc(CCC(N)=O)cc2)cc2ccccc21` and tell me its recorded pEC50 on Oxysterols receptor LXR-alpha (Homo sapiens, UniProt Q13133). 5.95

----------
Can you tell me Ratio for the items I'm about to list?
# System: HepG2
# assay_comment: Induction of Lipogenesis in HepG2 cells at 10 uM relative to control
# Format: functional, Homo sapiens

Example entries and their recorded answers appear below.
CC(C)(C)OC(=O)n1c(-c2ccc(CCC(N)=O)cc2)cc2ccccc21 ... 2.7
CC(C)(C)OC(=O)n1c(-c2ccc(CCC(=O)O)cc2)cc2ccccc21 ... 1.2
N#CCCc1ccc(-c2cc3ccccc3n2C(=O)c2ccccc2)cc1 ... 4
O=C(O)Cc1cccc(OCCCN(Cc2cccc(C(F)(F)F)c2Cl)CC(c2ccccc2)c2ccccc2)c1 ... 2.7
CC(C)(C)OC(=O)n1c(-c2ccc3c(c2)CC(NS(=O)(=O)c2ccccc2)C3)cc2ccccc21 (stereo unspecified) ... 3.1

Continue with the compound presented below.
Annotate the compound `CC(C)(C)OC(=O)n1c(-c2ccc(CCC#N)cc2)cc2ccccc21` with its measured Ratio. 2.5

----------
# study_system: Oxysterols receptor LXR-beta (Homo sapiens, UniProt P55055)
# Sequence (P55055 whole entry): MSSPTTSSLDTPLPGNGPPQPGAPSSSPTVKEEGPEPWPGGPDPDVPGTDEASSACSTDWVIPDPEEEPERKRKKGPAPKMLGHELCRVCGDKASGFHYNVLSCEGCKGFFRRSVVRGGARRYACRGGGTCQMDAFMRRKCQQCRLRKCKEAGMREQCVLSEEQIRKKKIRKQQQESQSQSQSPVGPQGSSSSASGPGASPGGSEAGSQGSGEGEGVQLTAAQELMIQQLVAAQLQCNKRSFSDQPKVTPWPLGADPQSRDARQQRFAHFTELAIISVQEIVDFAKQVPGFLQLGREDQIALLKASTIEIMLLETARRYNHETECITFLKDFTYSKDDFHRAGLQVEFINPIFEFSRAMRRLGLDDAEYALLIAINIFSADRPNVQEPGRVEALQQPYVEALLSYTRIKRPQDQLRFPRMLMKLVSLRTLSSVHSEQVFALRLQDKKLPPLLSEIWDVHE
# assay_comment: Agonist activity at human LXRbeta receptor transfected in COS7 cells after 16 hrs by reporter transactivation assay relative to GW-3965
# Assay type: functional, cell-based
# experimental_setup: cos-7
measurement_name: Efficacy (%)
Numbers only, in %.

In the examples that follow, each entry is paired with its recorded Efficacy.
CC(C)(C)OC(=O)n1c(-c2ccc(CCC(=O)O)cc2)cc2ccccc21 ... 76
CC(C)(C)OC(=O)n1c(-c2ccc(CCC(N)=O)cc2)cc2ccccc21 ... 70
CC(C)(C)OC(=O)n1c(-c2ccc3c(c2)CC(NS(=O)(=O)c2ccccc2)C3)cc2ccccc21 (stereo unspecified) ... 43

For each listed entry, give its Efficacy.
1. N#CCCc1ccc(-c2cc3ccccc3n2C(=O)c2ccccc2)cc1
2. CC(C)(C)OC(=O)n1c(-c2ccc(CCC#N)cc2)cc2ccccc21

[39, 45]

Give reported Efficacy value for `O=C(O)Cc1cccc(OCCCN(Cc2cccc(C(F)(F)F)c2Cl)CC(c2ccccc2)c2ccccc2)c1` 100
